Recorded PAR-2 β-arrestin cell based assay IC50, 2 µM SLIGKV by entry
# experimental.target: T1, human PAR-2 (human, UniProt P55085 26-397)
# T1 sequence: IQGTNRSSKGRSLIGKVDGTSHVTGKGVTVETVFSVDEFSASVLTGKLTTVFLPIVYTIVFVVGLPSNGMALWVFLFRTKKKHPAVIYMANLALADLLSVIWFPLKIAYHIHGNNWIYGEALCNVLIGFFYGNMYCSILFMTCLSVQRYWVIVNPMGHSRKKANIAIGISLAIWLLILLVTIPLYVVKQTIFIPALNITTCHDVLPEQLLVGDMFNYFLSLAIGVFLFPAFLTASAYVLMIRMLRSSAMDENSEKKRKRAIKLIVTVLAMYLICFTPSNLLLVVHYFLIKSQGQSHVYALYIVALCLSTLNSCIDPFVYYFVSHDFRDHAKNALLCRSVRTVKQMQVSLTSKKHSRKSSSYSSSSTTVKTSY
# protocol.text: cell-based or functional assay
readout.kind: PAR-2 β-arrestin cell based assay IC50, 2 µM SLIGKV

| binder | value.reported |
| --- | --- |
| P24E932 (antibody, human IgG4 S228P, kappa, V domains shown) VH: QVQLVQSGAEVKKPGSSVKVSCKASGFSLSSYAISWVRQAPGQGLEWMGVIWGNGNVYYAQKFQGRVTITADESTSTAYMELSSLRSEDTAVYYCARWKGYKDYPFDYWGQGTLVTVSS VL: EIVLTQSPATLSLSPGERATLSCRASQNIYKWLDWYQQKPGQAPRLLIYNAYSLATGIPARFSGSGSGRDFTLTISSLEPEDFAVYYCQQHNSGWTFGGGTKVEIKR | 1.4 nM |
| P24E933 (antibody, human IgG4 S228P, kappa, V domains shown) VH: QVQLVQSGAEVKKPGSSVKVSCKASGFSLSSYAISWVRQAPGQGLEWMGVIWGNGNTYYAQKFQGRVTITADESTSTAYMELSSLRSEDTAVYYCARWKGYKDYPFDYWGQGTLVTVSS VL: EIVLTQSPATLSLSPGERATLSCRASQNVYKWLDWYQQKPGQAPRLLIYNAYSRATGIPARFSGSGSGRDFTLTISSLEPEDFAVYYCQQHGSGWTFGGGTKVEIKR | 1.4 nM |
